- protocol: gradient 5% acetonitrile 3 min, to 50% in 2 min, to 85% in 15 min, held 3 min, 100 µL/min
- particulars: column: Zorbax Extend-C18 2.1 x 50 mm; eluents: water / acetonitrile, 0.1% formic acid
Listed here are compounds together with their documented RP-LC retention time.
Value expressed in s; do not type the unit.

compound=Cc1ccc(CNc2cc(-n3ccnc3)ncn2)cc1C readout_number=682
compound=Cc1nn(-c2ccc(C(=O)NCc3cccs3)cc2)c2c1C(=O)CCC2 readout_number=749
compound=O=C(NCc1ccccc1)c1ccc2ccnc(N3CCN(C(=O)c4ccco4)CC3)c2c1 readout_number=673
compound="CC(C)CN1C(=O)c2cccn2CC1C(=O)N1CCOCC1 (stereo not given)" readout_number=624
compound=CCOCCCNC(=O)c1ccc2c(c1)CCCN2S(C)(=O)=O readout_number=706

Assign RP-LC retention time to the following record: Cc1ccn2cc(C(=O)N3CCN(c4ccccc4)CC3)nc2c1 634

Assign RP-LC retention time to the following record: CC(C)N(CC(=O)N1CCNCC1)C(=O)c1cccc(Br)c1 573

Assign RP-LC retention time to the following record: O=C(Cn1nc(C(=O)N2CCCC2)c2ccccc21)NCc1cccnc1 580

Assign RP-LC retention time to the following record: COc1ccc(CSc2ncnc3nc[nH]c23)cc1 654

Assign RP-LC retention time to the following record: Cc1nn2c(CNS(=O)(=O)c3cccc(F)c3)c(-c3ccccc3)nc2s1 852

* * *

- protocol: gradient 5% acetonitrile 3 min, to 50% in 2 min, to 85% in 15 min, held 3 min, 100 µL/min
- particulars: column: Zorbax Extend-C18 2.1 x 50 mm; eluents: water / acetonitrile, 0.1% formic acid
Listed here are compounds together with their documented RP-LC retention time.
Value expressed in s; do not type the unit.

compound=COc1ccc(-c2nc(N(C)Cc3ccco3)c3ccccc3n2)cc1 observable="RP-LC retention time" readout_number=765

Assign RP-LC retention time to the following record: CCN1C(=O)c2cccnc2Sc2cc(NC(=O)c3c(F)cccc3Cl)ccc21 850

* * *

- protocol: gradient 5% acetonitrile 3 min, to 50% in 2 min, to 85% in 15 min, held 3 min, 100 µL/min
- particulars: column: Zorbax Extend-C18 2.1 x 50 mm; eluents: water / acetonitrile, 0.1% formic acid
observable: RP-LC retention time (s)
Value expressed in s; do not type the unit.

Use these answered entries as a reference point.
compound=CCc1noc(NC(C)=O)c1-c1ccc(C)c(S(=O)(=O)Nc2cc(Cl)ccc2C)c1 observable="RP-LC retention time" readout_number=891
compound="Cc1ccc(CNC(=O)C2(C)CN(S(C)(=O)=O)CC(=O)N2c2cc(C)ccc2C)cc1 (centres undefined)" observable="RP-LC retention time" readout_number=898
compound=CCc1ccc(-c2cc3c(=O)n(CC(=O)NCCCN4CCCC4=O)nc(C)n3n2)cc1 observable="RP-LC retention time" readout_number=812

Now let's try a different one.
Assign RP-LC retention time to the following record: O=C(CCC(=O)c1ccc(F)cc1)Nc1cnn(-c2ncc(N3CCCC3)cn2)c1 799

* * *

Listed here are molecules together with their documented RP-LC retention time.
- protocol: gradient 5% acetonitrile 3 min, to 50% in 2 min, to 85% in 15 min, held 3 min, 100 µL/min
- particulars: column: Zorbax Extend-C18 2.1 x 50 mm; eluents: water / acetonitrile, 0.1% formic acid
Value expressed in s; do not type the unit.

query_smiles=CCOCCCNC(=O)C1CCN(c2nccnc2Oc2ccccc2C)CC1 readout_number=841

Assign RP-LC retention time to the following record: Cc1ccc(-c2ncc(C(=O)NCCN3CCCCCC3)c(-c3ccncc3)n2)cc1 637

Assign RP-LC retention time to the following record: Cc1cccc(NC(=O)Cn2c(-c3cnccn3)nc(C)c(C)c2=O)c1 707

Assign RP-LC retention time to the following record: COc1cc2c(cc1OC)CC(=O)N(CCCN(C)C[C@H]1Cc3cc(OC)c(OC)cc31)CC2 677

* * *

Listed here are molecules together with their documented RP-LC retention time.
- protocol: gradient 5% acetonitrile 3 min, to 50% in 2 min, to 85% in 15 min, held 3 min, 100 µL/min
- particulars: column: Zorbax Extend-C18 2.1 x 50 mm; eluents: water / acetonitrile, 0.1% formic acid
Number first, unit second: that is the form wanted.

molecule="CCCN(CC1CCOC1)C(=O)Nc1cccc(F)c1 (stereo not drawn)" observable="RP-LC retention time" result="684 s"
molecule=O=C(c1cn(-c2cc(Nc3ccccc3)ncn2)cn1)N1CCOCC1 observable="RP-LC retention time" result="676 s"

Now let's try a different one.
Assign RP-LC retention time to the following record: COC(=O)[C@@H]1[C@H]2C[C@@H]3c4[nH]c5ccccc5c4CCN3C[C@@H]2CC[C@@H]1O 660 s

* * *

Listed here are compounds together with their documented RP-LC retention time.
- protocol: gradient 5% acetonitrile 3 min, to 50% in 2 min, to 85% in 15 min, held 3 min, 100 µL/min
- particulars: column: Zorbax Extend-C18 2.1 x 50 mm; eluents: water / acetonitrile, 0.1% formic acid

Use these answered entries as a reference point.
query_smiles=COc1ccc(NC(=O)C2CCN(c3cc(N4CCSCC4)ncn3)CC2)cc1Cl result="706 s"
query_smiles=COc1cccc(N2CCN(C(=O)c3cc(NC(=O)C(C)C)cc4nc(C)ccc34)CC2)c1 result="681 s"

Now let's try a different one.
Assign RP-LC retention time to the following record: COc1ccccc1-c1nc(-c2ccc3c(c2)ncn3CCN2CCCC2)no1 797 s

* * *

- protocol: gradient 5% acetonitrile 3 min, to 50% in 2 min, to 85% in 15 min, held 3 min, 100 µL/min
- particulars: column: Zorbax Extend-C18 2.1 x 50 mm; eluents: water / acetonitrile, 0.1% formic acid
Listed here are molecules together with their documented RP-LC retention time.
Value expressed in s; do not type the unit.

molecule="Cc1cccc(N2CCN(C(=O)C3CCN(C(=O)C4Sc5ccccc5NC4=O)CC3)CC2)c1C (centres undefined)" observable="RP-LC retention time" unit_annotation=s readout_number=918
molecule=O=C(c1ccco1)N1CCN(S(=O)(=O)c2cc3c4c(c2)CCC(=O)N4CCC3)CC1 observable="RP-LC retention time" unit_annotation=s readout_number=690
molecule=O=C(Cn1cnc2nc(N3CCOCC3)ncc2c1=O)NCc1cccc(C(F)(F)F)c1 observable="RP-LC retention time" unit_annotation=s readout_number=687

Now let's try a different one.
Assign RP-LC retention time to the following record: Cc1cccc(Nc2nc(C)c(C(=O)N3CCN(c4ccccc4)CC3)s2)n1 884

* * *

- protocol: gradient 5% acetonitrile 3 min, to 50% in 2 min, to 85% in 15 min, held 3 min, 100 µL/min
- particulars: column: Zorbax Extend-C18 2.1 x 50 mm; eluents: water / acetonitrile, 0.1% formic acid
Listed here are molecules together with their documented RP-LC retention time.
Value expressed in s; do not type the unit.

Use these answered entries as a reference point.
molecule="O=C(Cc1cccs1)NC1CCCN(c2cc(-c3ccc(F)cc3)[nH]n2)C1 (stereo not given)" readout_number=784
molecule="Cc1ccc(CNC(=O)CN2C(=O)C3CCCCN3c3ccc(C(=O)N4CCCC4)cc32)o1 (stereo not given)" readout_number=664
molecule="CCN1C(=O)c2cc(C(=O)Nc3ccc(F)cc3)nn2CC1(C)C(=O)NC1CCCC1 (stereo not given)" readout_number=813

Assign RP-LC retention time to the following record: O=C(NCC(=O)N1CCCc2ccccc21)c1cccs1 761

Assign RP-LC retention time to the following record: CN1CCCc2cc(C(CNC(=O)C(=O)Nc3ccc4c(c3)OCO4)N3CCCC3)ccc21 (stereo not given) 714

* * *

- protocol: gradient 5% acetonitrile 3 min, to 50% in 2 min, to 85% in 15 min, held 3 min, 100 µL/min
- particulars: column: Zorbax Extend-C18 2.1 x 50 mm; eluents: water / acetonitrile, 0.1% formic acid
condition met if RP-LC retention time is below 800 s. condition not met if not; exact matches included in condition not met.

Before answering, review these 5 worked examples.
compound=O=C(CC1CCCCC1)NC1CCN(c2cc(-c3cccnc3)[nH]n2)CC1 assigned_label="condition met"
compound=O=C1CN=C(c2ccc[nH]2)c2cc(Cl)ccc2N1 assigned_label="condition met"
compound=Cc1ccccc1C(=O)Nc1ccc2c(c1)Sc1ncccc1C(=O)N2C(C)C assigned_label="condition not met"
compound=Cc1cc(C)nc(NS(=O)(=O)c2ccc(NC(=O)NC3CCCCC3)cc2)n1 assigned_label="condition met"
compound=CN1CCN(c2cc(-c3nc(-c4ccc(Cl)cc4)no3)c3ccccc3n2)CC1 assigned_label="condition not met"

API: query returns whether the compound falls strictly under 800 s in RP-LC retention time. Query: Clc1ccc(-c2nc3ccccn3c2Nc2ccc3c(c2)OCCO3)cc1 condition met
